Target: hFc-hROR1 (fusion protein of the extracellular domain of human ROR1 and the Fc domain of human IgG1) (human, UniProt P01857 99-330 = IgG part)
Sequence (P01857 other isoform, or with tags, fused parts or gaps): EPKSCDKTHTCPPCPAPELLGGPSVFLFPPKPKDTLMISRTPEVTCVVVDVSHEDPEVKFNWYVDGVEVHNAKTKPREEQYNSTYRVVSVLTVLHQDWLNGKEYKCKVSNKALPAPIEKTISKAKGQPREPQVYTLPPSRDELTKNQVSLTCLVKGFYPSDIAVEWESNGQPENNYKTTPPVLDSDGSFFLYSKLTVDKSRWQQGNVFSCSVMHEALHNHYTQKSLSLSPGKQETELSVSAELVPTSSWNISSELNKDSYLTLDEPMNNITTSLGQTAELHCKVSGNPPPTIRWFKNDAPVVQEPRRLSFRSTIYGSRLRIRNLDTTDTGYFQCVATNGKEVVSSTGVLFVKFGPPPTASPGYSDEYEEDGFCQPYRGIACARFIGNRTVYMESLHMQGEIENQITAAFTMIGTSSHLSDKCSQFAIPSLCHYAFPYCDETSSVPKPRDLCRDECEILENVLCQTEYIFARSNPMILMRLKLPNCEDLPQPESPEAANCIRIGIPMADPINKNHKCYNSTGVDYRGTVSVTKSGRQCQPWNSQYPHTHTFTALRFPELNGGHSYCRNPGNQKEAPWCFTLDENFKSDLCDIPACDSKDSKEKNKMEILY
Assay: SPR
MEASURE_NAME: Kd (nM)
Write the value in nM as a bare number.

Per the records, this binder ( XBR1-402 chimeric rabbit/human Fab (Fab, V domains shown) VH: QEQQKESGGGLFKPTDTLTLTCTASGFDISSYYMSWVRQAPGNGLEWIGAIGISGNAYYASWAKSRSTITRNTNLNTVTLKMTSLTAADTATYFCARDHPTYGMDLWGPGTLVTVSS VL: SYELTQLPSVSVSLGQTARITCEGNNIGSKAVHWYQQKPGLAPGLLIYDDDERPSGVPDRFSGSNSGDTATLTISGAQAGDEADYYCQVWDSSAYVFGGGTQLTVTG ) has Kd equal to 5.81

// Kd value for ERR1-301 chimeric rabbit/human Fab (Fab, V domains shown) VH: QEQLEESGGGLVTPGGSLTLTCTASGFTISTYHMSWVRQAPGKGLEWIGSIYAGSGSTYYASWVNGRFTISSNTTQNTVSLQMNSLTVADTATYFCARDHPSYGMDLWGPGTLVTVSS VL: SYELTQLPSVSVSLGQTARITCGGNSIGSKAVNWYQQKPGLAPGLLIYDDDERPSGVPDRFSASNSGDTATLTISGAQAEDEADYYCQLWDSSAVAYVFGGGTQLTVTG : 118

// field: Kd; key: ERR1-TOP43 chimeric rabbit/human Fab (Fab, V domains shown) VH: QSLEESGGRLVTPGTPLTLTCTVSGFSLSSYWMSWVRQAPGKGLEWIGAIYGSGNTYYASWAKGRFTISKTSTTVDLKITSPTTEDTATYFCARDVHSTATDLWGPGTLVTISS VL: SYELTQLPSVSVSLGQTARITCGGNNIGSKAVNWYQQKPGLAPGLLIYNDDERPSGVPDRFSGSNSGDTATLTISGAQAGDEADYYCQLWDSSAGAYVFGGGTQLTVTG ; value = 1.11

get_value(item= ERR1-403 chimeric rabbit/human Fab (Fab, V domains shown) VH: QEQLKESGRGLVQPGGSLKLSCKASGFDFSGWYMTWVRQAPGKGLEWIGTIGTTKGRTYYASWVNGRFTISSDNAQNTVDLQMNSLTAADRATYFCVRGSDYFDLWGPGTLVTISS VL: SYELTQLPSVSVSLGQTARITCGGNSIGSKAVNWYQQKPGLAPGLLIYDDDERPSGVPARFSGSNSGDTATLTISGAQAGDEADYYCQLWDSSAGAYVFGGGTQLTVTG , readout=Kd) returns 41.6
